# Tested on: SNB-19 CNS
# Protocol details: NCI tumour cell line growth inhibition, 48 h
Provide the reported GI50 of each item.

Looking up "COc1cccc(-n2nc(C)c3c(N/N=C(\C)c4ccncc4)ncnc32)c1" , I see its GI50 listed as > 25 µM

Per the record, "CCCc1cc(=O)[nH]c(-n2nc(C)cc2C)n1" has GI50 of 4.5 µM

# compound "O=S(=O)(Nc1ccc(Br)c(Cl)c1)c1ccc(-c2cnc(C3CC3)o2)cc1" ; its GI50 = 0.517 µM

For this compound ( "O=C(Nc1cccc(-n2cc(-c3ccncc3)c(-c3ccc(Cl)c(O)c3)n2)c1)c1ccc(N2CCOCC2)c(C(F)(F)F)c1" ), measured GI50 is 4.11 µM

Data point: "O=C(Nc1cccc(-n2cc(-c3ccncc3)c(-c3cc(O)cc(Cl)c3)n2)c1)Nc1ccc(Cl)c(C(F)(F)F)c1" ; GI50 = 3.7 µM

Looking up "NC(=O)c1ccccc1Nc1ccc2nnc(-c3ccncc3)n2n1" , I see its GI50 listed as 14.4 µM

Sample C=CCC1(O)c2ccccc2C(=O)c2c(NCCN(CC(=O)OCC)CC(=O)OCC)cccc21 (stereo not given) ; GI50 observed: > 100 µM

// field: GI50; key: "COc1ccc(C(=O)/C=C/c2cccc([N+](=O)[O-])c2)c(OC)c1" ; value = 1.46 µM

GI50 in this record for CCC1CN2C(=N1)c1ccccc1-c1cc(Cl)ccc12 (stereo not given) : 5.85 µM

Data point: "O=C1C(N2CC2)=C(N2CC2)C(=O)C(N2CC2)=C1N1CC1" ; GI50 = 0.14 µM

###

Exercise: state measured TGI for each of the compounds provided.
# System: HL-60(TB) leukemia
# Protocol details: NCI tumour cell line growth inhibition, 48 h

Looking up CC1CC2OC(=O)C(C)C2CC2(C)C(OC3OC(CO)C(O)C(O)C3O)OCCC12 (stereo unspecified) , I see its TGI listed as > 100 µM

Measured TGI of C=CCC1(OC(C)=O)C2OC(=O)C1(O)OCC2O (stereo unspecified) : > 100 µM

// TGI value for O=c1ccn(C2CC(O)C(CO)O2)c(=O)[nH]1 (stereo unspecified) : > 5000 µM

Per the records, this compound ( "O=c1c2ccccc2c(=O)n2n1CC=CC2" ) has TGI equal to > 100 µM

TGI in this record for "NC(=O)c1ccc(I)c(N=O)c1" : 85.5 µM

For this compound ( "CNCCCn1c2c(c3ccc([N+](=O)[O-])cc3c1=O)C(=O)c1cc(OC)cnc1-2" ), measured TGI is 0.921 µM

Field TGI (entry "O=C(Nc1ccncc1)C(=O)c1cn(Cc2ccc(Cl)cc2)c2ccccc12" ) reads 0.237 µM

Reported TGI of "COc1ccc(C(=O)c2sc(Nc3ccc(Cl)cc3)nc2N)cc1" : > 100 µM

Measured TGI, "O=S(=O)(O)C(=Nc1cccc(Cc2ccccc2)c1)Nc1cccc(Cc2ccccc2)c1" : 95.7 µM

The compound "COc1cccc(-n2nc(C)c3c(N/N=C(\C)c4ccncc4)ncnc32)c1" showed TGI equal to > 25 µM

TGI recorded for this compound, "CCOC(=O)c1nc2ccccc2nc1NCc1cc(OC)c(OC)c(OC)c1" , is > 100 µM

###

# Tested on: CCRF-CEM leukemia
# Protocol details: NCI tumour cell line growth inhibition, 48 h
Quantity measured: TGI

Short answer on CCRF-CEM leukemia for "Cc1ccc(SSc2ccc(C)cc2C(=O)O)c(C(=O)O)c1" , TGI: > 100 µM

TGI of "COc1ccc2c(c1)[n+]([O-])c(-c1ccc(OC)c(OC)c1)c(N)[n+]2[O-]" , assay on CCRF-CEM leukemia, is > 100 µM

Given the compound "Nc1cccc(/C=C/C(=O)N2CCN(CCOC(c3ccccc3)c3ccccc3)CC2)c1" and test system CCRF-CEM leukemia, the measured TGI is 26.4 µM

Bench note, CCRF-CEM leukemia: entry "COc1cccc(C2=C(c3c(C)n(C)c4ccccc34)C(=O)NC2=O)c1" , its TGI = > 25 µM

Bench note, CCRF-CEM leukemia: entry "CC1=NN(c2nc(N)nc(CSc3nc4n(c(=S)n3)CCN4)n2)C(C)(C)C1" , its TGI = > 100 µM

###

# System: SW-620 colon
# Protocol details: NCI tumour cell line growth inhibition, 48 h
Quantity measured: TGI (µM)
Express the result in µM but write the number alone.

The compound identified as "COc1ccc2c(c1)[nH]c1c(/C=C/c3ccccc3)nccc12" registered its TGI at 91.9

GET /value?item= "Nc1ccc2c(SCc3ccc([N+](=O)[O-])cc3)c3ccccc3nc2c1" &field=TGI returns 13.8

Record "O=c1oc(Cl)c(Cl)c2ccccc12" , field TGI: 56.3

Field TGI (entry "CNC(=O)c1cccc2cc(Oc3ccnc4cc(OCC5(N)CC5)c(OC)cc34)ccc12" ) reads 20.5

###

# Tested on: M14 melanoma
# Protocol details: NCI tumour cell line growth inhibition, 48 h
What log10 TGI was measured for each of the following?
Give log10 of TGI, with TGI taken in µM.

Sure, the documented log10 TGI for "O=S(=O)(Nc1ccc(Br)c(Cl)c1)c1ccc(-c2cnc(C3CC3)o2)cc1" is 1.15

Per the records, this compound ( "Cc1cc(C(=C2C=CC(=Nc3ccccc3)C=C2)c2ccc(Nc3ccccc3)cc2)ccc1N" ) has log10 TGI equal to 0.02

log10 TGI for CC1=NN(c2cccc(Cl)c2)C2(SCC(=O)N2c2nc3ccccc3s2)/C1=C\c1cccs1 (stereo not given) is 1.95

In plain terms, "c1cc2n(n1)CCN2" has a documented log10 TGI of 3.76

So, "CCCCC[C@H]1C/C=C2/C(=O)C=C[C@@H]2C/C=C\CCCC(=O)O[C@@H](CCCCC)C/C=C2/C(=O)C=C[C@@H]2C/C=C\CCCC(=O)O1" ? Its log10 TGI was 0.00

###

# System: HCT-15 colon
# Protocol details: NCI tumour cell line growth inhibition, 48 h; in the data active = GI50 below about 0.43 µM; inactive = the rest
Result category, one only: active, inactive

[Q] Assay result, entry "NC(=O)c1ccc(I)c(N=O)c1" — outcome?
[A] inactive

[Q] Write down the call the test reported for this compound. Item: "CCCCC[C@H]1C/C=C2/C(=O)C=C[C@@H]2C/C=C\CCCC(=O)O[C@@H](CCCCC)C/C=C2/C(=O)C=C[C@@H]2C/C=C\CCCC(=O)O1"
[A] inactive

[Q] In this assay, the call recorded for "O=c1oc(Cl)c(Cl)c2ccccc12" was what?
[A] inactive

[Q] So what was the verdict on COc1cccc2c1C(=O)c1c(O)c3c(c(O)c1C2=O)CC(O)(C(O)CO)CC3OC1CC(N2CCOCC2)C(O)C(C)O1 (stereo unspecified) in this test?
[A] active

[Q] Just curious, what result did "Cc1ccc(-c2nc(C#N)c(S(=O)(=O)n3nc(C)cc3N)o2)cc1" get here?
[A] inactive

[Q] Short answer needed: outcome of this test for "O=C(Nc1cccc(-n2cc(-c3ccncc3)c(-c3ccc(Cl)c(O)c3)n2)c1)c1ccc(N2CCOCC2)c(C(F)(F)F)c1" ?
[A] inactive

[Q] Hi, do you know how "COc1cc(Nc2c(C#N)cnc3cc(OCCCN4CCN(C)CC4)c(OC)cc23)c(Cl)cc1Cl" came out in this test?
[A] inactive

[Q] What outcome does the record of this test show for "NC(=O)c1ccccc1Nc1ccc2nnc(-c3ccncc3)n2n1" ?
[A] inactive

[Q] Outcome logged for "c1csc(-c2cn3nc(-c4c[nH]c5ccccc45)sc3n2)c1" in this assay:
[A] inactive

[Q] Answer briefly: the call reported for "O=C(Nc1ccncc1)C(=O)c1cn(Cc2ccc(Cl)cc2)c2ccccc12" in this assay.
[A] active

[Q] Please state the recorded outcome for this compound: "CN[C@H](C#Cc1c(F)ccc2c1/C(=C/c1[nH]ccc1OC)C(=O)N2)CO"
[A] active

###

# Test system: SF-268 CNS
# Protocol details: NCI tumour cell line growth inhibition, 48 h
TGI vs 40 µM: at or above is MET, below is NOT MET.

[Q] Does "CC(=O)C(=Cc1ccc(C=C(C(C)=O)C(C)=O)cc1)C(C)=O" have a reported TGI of at least 40 µM?
[A] NOT MET

[Q] Entry CC1OC(n2c3ccccc3c3c4c(c5c6ccccc6[nH]c5c32)C(=O)N(CCN[C@@H]2CCC[C@H]2N)C4=O)CC(O)C1O (stereo not given in full) : is its TGI no less than 40 µM?
[A] NOT MET

[Q] Decide: TGI of "COc1ccc(C(=O)c2sc(Nc3ccc(Cl)cc3)nc2N)cc1" >= 40 µM?
[A] MET

[Q] In plain terms: is recorded TGI at least 40 µM for CC12CC3OC(=O)C1COC14OC5(C2C1=O)C(O)(CCC1C4CC(O)C2(O)CC=CC(=O)C12C)C(=O)OC35C (stereo not given) ?
[A] MET

[Q] # bool: TGI of C=CCC1(OC(C)=O)C2OC(=O)C1(O)OCC2O (stereo not given) >= 40 µM
[A] MET

[Q] Say whether "CC(=O)NNc1nc(C)c(C(=O)/C=C/c2ccccc2Cl)s1" shows TGI of 40 µM or more.
[A] MET

[Q] Is TGI for "COc1cc(Nc2c(C#N)cnc3cc(OCCCN4CCN(C)CC4)c(OC)cc23)c(Cl)cc1Cl" at or above 40 µM?
[A] NOT MET

[Q] Determine whether this compound has TGI no lower than 40 µM: "CCOC(=O)c1nc2ccccc2nc1NCc1cc(OC)c(OC)c(OC)c1"
[A] MET

[Q] Check this compound for TGI at or above 40 µM: COC(=O)[C@@]12OC[C@]34[C@H]([C@@H](O)[C@@H]1O)[C@@]1(C)[C@H](O)C(=O)C=C(C)[C@@H]1C[C@H]3OC(=O)C(OC(C)=O)[C@@H]24 (stereo not given in full)
[A] NOT MET

[Q] Is reported TGI greater than or equal to 40 µM here: "N.N.N.N.N.[Cl-].[Co+3].c1ccc(-c2nn[n-]n2)cc1"
[A] MET

[Q] API: above_or_equal(metric=TGI, cutoff=40 µM) for item "O=C1NCc2ccccc2S(=O)(=O)n2cccc21"
[A] MET

[Q] Assess whether reported TGI for "O=S(=O)(O)C(=Nc1cccc(Cc2ccccc2)c1)Nc1cccc(Cc2ccccc2)c1" sits at 40 µM or higher.
[A] NOT MET

[Q] Evaluate C=CCNC(=O)N(CCCC(NC(C)=O)C(=O)NCc1ccccc1)Cc1ccccc1 (stereo not given) : TGI at minimum 40 µM?
[A] MET

[Q] API: above_or_equal(metric=TGI, cutoff=40 µM) for item "CCN(Cc1ccc(F)cc1)c1ccc(CO)c(F)c1"
[A] MET

[Q] Please check the record Cc1cccc(N(C(=O)Nc2ccc(Cl)c(Cl)c2)C2=NCC(C)S2)c1 (stereo not given) and state if its TGI is at or above 40 µM.
[A] MET

[Q] I'd appreciate it if you could say whether "COc1ccc2c(c1)[nH]c1c(/C=C/c3ccccc3)nccc12" has TGI at least equal to 40 µM.
[A] NOT MET

[Q] Can CCOP(=O)(OCC)C(Nc1ccc(Br)cc1)c1cccc([N+](=O)[O-])c1 (stereo not given) be said to have TGI at or above 40 µM?
[A] MET

[Q] Does the reported TGI for "Nc1cccc(/C=C/C(=O)N2CCN(CCOC(c3ccccc3)c3ccccc3)CC2)c1" fall at or above the 40 µM mark?
[A] NOT MET

[Q] Test whether the compound "O=C(/C=C/c1ccc(O)c(-c2cc(C(=O)/C=C/c3ccc(O)cc3)c(O)cc2O)c1)c1ccc(O)cc1O" records TGI of 40 µM or higher.
[A] MET

[Q] Answer whether TGI of "CCOc1ccc(/C(Cl)=C(\C=O)c2ccc(OC)c(OC)c2)cc1OCC" is greater than or equal to 40 µM.
[A] MET
